Target: T1, human CD123 (full-length, on cells) (human, UniProt P26951 19-378)
T1 construct: also called CD123-FL; interleukin-3 receptor alpha chain
T1 sequence (P26951 19-378): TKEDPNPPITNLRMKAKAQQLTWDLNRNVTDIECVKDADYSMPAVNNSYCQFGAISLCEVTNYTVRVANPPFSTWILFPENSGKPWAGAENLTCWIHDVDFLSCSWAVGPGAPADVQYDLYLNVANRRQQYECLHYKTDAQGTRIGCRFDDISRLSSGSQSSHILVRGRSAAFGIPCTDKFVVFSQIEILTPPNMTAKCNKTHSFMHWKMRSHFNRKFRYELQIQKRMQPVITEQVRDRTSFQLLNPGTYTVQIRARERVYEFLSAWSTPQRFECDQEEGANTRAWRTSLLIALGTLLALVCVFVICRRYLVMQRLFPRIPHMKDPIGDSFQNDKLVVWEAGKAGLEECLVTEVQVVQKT
Assay: flow cytometry, HEK 293 cells transfected with full-length CD123 (CD123-FL); Median RL-1H
Description: Binding of sdAbs to human CD123 was assessed by flow cytometry. […] The cells were washed twice more, then bound antibody was detected by flow cytometry. Flow cytometric analysis was performed on an Intellicyte iQue Plus and fluorescence was plotted as median fluorescence intensity. The apparent affinity (Kd, nM) was determined using one site binding non-linear regression in PRISM graph software.
quantity: EC50 (read off the curve)

[ask] Please report the measured EC50 (read off the curve) for hz1F5v1-IgG1 (Fc fusion) EVQLVESGGGEVQPGGSLRLSCAASGRAINMYAMGWFRQAPGKEREFVAAINWNGAYTQYAESVKGRFTISRDNAKNTLYLQMSSLRAEDTAVYYCSADADYNTYVSPNKRVSYWGQGTLVTVDKTHTCPPCPAPGGPSVFLFPPKPKDTLMISRTPEVTCVVVDVSHEDPEVKFNWYVDGVEVHNAKTKPREEQYNSTYRVVSVLTVLHQDWLNGKEYKCKVSNKALPAPIEKTISKAKGQPREPQVYTLPPSRDELTKNQVSLTCLVKGFYPSDIAVEWESNGQPENNYKTTPPVLDSDGSFFLYSKLTVDKSRWQQGNVFSCSVMHEALHNHYTQKSLSLSPGK
[reply] ~0.6 nM

[ask] Hello, please tell me recorded EC50 (read off the curve) for this one: hz4F2v3-IgG1 (Fc fusion, also called hz4F2v3 sdAb) EVQLVESGGGEVQPGGSLRLSCAASGRTVSNYPMAWFRQAPGKEREFVAHISWSGITSILNSVNDRFTISRDNAKNTIYLQMSSLRAEDTAVYYCAAAQRPTAGPKGPFGYWGQGTLVTVDKTHTCPPCPAPGGPSVFLFPPKPKDTLMISRTPEVTCVVVDVSHEDPEVKFNWYVDGVEVHNAKTKPREEQYNSTYRVVSVLTVLHQDWLNGKEYKCKVSNKALPAPIEKTISKAKGQPREPQVYTLPPSRDELTKNQVSLTCLVKGFYPSDIAVEWESNGQPENNYKTTPPVLDSDGSFFLYSKLTVDKSRWQQGNVFSCSVMHEALHNHYTQKSLSLSPGK
[reply] 2 to 3 nM

[ask] Note EC50 (read off the curve) for the binder shown: 1F5-IgG1 (Fc fusion) QVQLVQSGGGLVQAGGSLTVSCTASGRAINMYAMGWFRQAPGKEREFVAAINWNGAYTQYADSVKGRFTISRDNAKNTMYLQMNSLKPEDTAQYYCSADADYNTYVSPNKRVSYWGQGTQVTVDKTHTCPPCPAPGGPSVFLFPPKPKDTLMISRTPEVTCVVVDVSHEDPEVKFNWYVDGVEVHNAKTKPREEQYNSTYRVVSVLTVLHQDWLNGKEYKCKVSNKALPAPIEKTISKAKGQPREPQVYTLPPSRDELTKNQVSLTCLVKGFYPSDIAVEWESNGQPENNYKTTPPVLDSDGSFFLYSKLTVDKSRWQQGNVFSCSVMHEALHNHYTQKSLSLSPGK
[reply] ~0.9 nM

[ask] Given C5-IgG1 (Fc fusion, also called sdAb C5) QVTLRESGGGLVQAGGSLRLSCKGSGRAINTYAMGWFRQAPGKEREFVAAISWNGGHTRYADSVQGRFAISRDNADNTMYLQMNSLKPEDTAVYHCAAYSDYHRIATMEADADSWGQGTQVTVDKTHTCPPCPAPGGPSVFLFPPKPKDTLMISRTPEVTCVVVDVSHEDPEVKFNWYVDGVEVHNAKTKPREEQYNSTYRVVSVLTVLHQDWLNGKEYKCKVSNKALPAPIEKTISKAKGQPREPQVYTLPPSRDELTKNQVSLTCLVKGFYPSDIAVEWESNGQPENNYKTTPPVLDSDGSFFLYSKLTVDKSRWQQGNVFSCSVMHEALHNHYTQKSLSLSPGK , respond with its EC50 (read off the curve).
[reply] ~1 nM

[ask] Give me measured EC50 (read off the curve), please, for this binder: hzF3v22-IgG1 (Fc fusion, also called hzF3v22 sdAb) EVQLVESGGGLVQPGGSLRLSCAASGRAINAYNMGWFRQAPGKGREFVSAINWNAARTYYAESVKGRFTISRDNAKNTLYLQMSSLRAEDTAVYYCAASGRWSAAVPSGEDQYNFWGQGTLVTVDKTHTCPPCPAPGGPSVFLFPPKPKDTLMISRTPEVTCVVVDVSHEDPEVKFNWYVDGVEVHNAKTKPREEQYNSTYRVVSVLTVLHQDWLNGKEYKCKVSNKALPAPIEKTISKAKGQPREPQVYTLPPSRDELTKNQVSLTCLVKGFYPSDIAVEWESNGQPENNYKTTPPVLDSDGSFFLYSKLTVDKSRWQQGNVFSCSVMHEALHNHYTQKSLSLSPGK
[reply] ~0.7 nM
